Measured IC50 by item
Target: Falcipain 2 (Plasmodium falciparum, UniProt Q9N6S8)
Sequence (Q9N6S8 whole entry): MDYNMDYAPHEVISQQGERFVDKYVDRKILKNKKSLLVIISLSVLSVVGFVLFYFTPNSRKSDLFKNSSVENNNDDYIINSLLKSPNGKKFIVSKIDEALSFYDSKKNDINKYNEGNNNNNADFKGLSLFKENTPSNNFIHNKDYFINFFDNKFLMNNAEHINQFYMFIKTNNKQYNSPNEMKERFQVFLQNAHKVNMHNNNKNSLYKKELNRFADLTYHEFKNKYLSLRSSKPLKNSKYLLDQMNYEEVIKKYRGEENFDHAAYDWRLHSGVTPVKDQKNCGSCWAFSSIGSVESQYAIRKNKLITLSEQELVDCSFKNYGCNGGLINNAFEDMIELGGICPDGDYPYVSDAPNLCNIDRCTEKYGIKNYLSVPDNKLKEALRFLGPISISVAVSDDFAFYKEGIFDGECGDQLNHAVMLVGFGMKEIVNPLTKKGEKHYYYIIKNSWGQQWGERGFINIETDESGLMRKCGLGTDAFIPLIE
Test: Inhibition of Plasmodium falciparum recombinant falcipain-2
Please state the figure in µM; there is no need to write the unit.

Recorded IC50, per entry:
Oc1ccc(Nc2nc(-c3cccnc3)cs2)cc1 = 22.5
O=C(N/N=C/c1ccc(/C=N/NC(=O)c2ccccc2O)cc1)c1ccccc1O = 2.2
O=C(Cc1nnc(NC(=O)c2ccccc2)s1)N/N=C\c1ccc(O)c(O)c1 = 31.1
O=C(CNC(=O)[C@@H]1COc2ccccc2O1)N/N=C/c1cccs1 = 26.6
CCCc1cc(=O)[nH]c(SCC(=O)Nc2ccccc2)n1 = 59.9
O=C(Cn1nnc(-c2ccccc2)n1)N/N=C1\C(=O)Nc2ccccc21 = 27.3

Param readout = IC50; param system = Falcipain 2 (Plasmodium falciparum, UniProt Q9N6S8); param query = CCOP(=O)(CC(=O)NNC(=O)Nc1cccc2ccccc12)OCC ; response: value
53.4

Param readout = IC50; param system = Falcipain 2 (Plasmodium falciparum, UniProt Q9N6S8); param query = O=C(CN1C(=O)/C(=N\NC(=O)c2ccncc2)c2ccccc21)Nc1ccccc1 ; response: value
40.9

Value source: ChEMBL document CHEMBL1149285
